Attribution: PubChem BioAssay (NCI)

Test system: MALME-3M melanoma
Assay: NCI tumour cell line growth inhibition, 48 h
Quantity Kind: GI50

Below are worked cases with known answers.
>  <Compound>
O=C1C[C@@H]2OCC=C3C[N+]4([O-])CC[C@]56c7ccccc7N1[C@H]5[C@H]2[C@H]3C[C@@H]64 (some centres not stated)

>  <Assay Result>
> 100000 nM

$$$$
>  <Compound>
C=CCN(CC=C)Cc1c[nH]c2ccccc12

>  <Assay Result>
7830 nM

$$$$
>  <Compound>
CN(C)CCCC1(c2ccc(F)cc2)OCc2cc(-c3csc4ccccc34)ccc21 (configuration not stated)

>  <Assay Result>
1430 nM

$$$$
>  <Compound>
CC[C@]12C=CCN3CC[C@@]4(c5ccc(OC)cc5N(C)[C@H]4[C@@](O)(C(=O)OC)[C@@H]1OC(=O)CCCN1CCN(CCCC(=O)O[C@@H]4[C@]5(CC)C=CCN6CC[C@@]7(c8ccc(OC)cc8N(C)[C@H]7[C@@]4(O)C(=O)OC)[C@@H]65)CC1)[C@@H]32

>  <Assay Result>
1600 nM

$$$$
>  <Compound>
CCN1CCN(CC(=O)Nc2nc3ccc(NCc4ccc(Br)cc4)cc3s2)CC1

>  <Assay Result>
1660 nM

$$$$
>  <Compound>
CC(C)(C)OC(=O)CC(NC(=O)OCc1ccccc1)NC(=O)OC(C)(C)C (configuration not stated)

>  <Assay Result>
46 µg/mL

$$$$

Now turn to the next compound.
Ask: # return recorded GI50 for entry `CN(C)[C@@H]1C(=O)C(C(=O)NCc2nc3[nH]cnc(=S)c3[nH]2)=C(O)[C@@]2(O)C(=O)C3=C(O)c4c(O)cccc4[C@@](C)(O)[C@H]3C[C@@H]12`
Result: > 100000 nM

* * *

Test system: SR leukemia
Assay: NCI tumour cell line growth inhibition, 48 h
Examples of molecules with documented TGI follow.

>  <Molecule>
CCOC(=O)C#Cc1c(C(=O)OCC)nnn1[C@@H]1O[C@H](COC)[C@@H](OC)[C@H]1OC

>  <Quantity Kind>
TGI

>  <Assay Result>
4.66 µM

$$$$
>  <Molecule>
O=C1NC(c2ccccc2Cl)Nc2ccccc21 (stereo unspecified)

>  <Quantity Kind>
TGI

>  <Assay Result>
> 100 µM

$$$$
>  <Molecule>
O=C1C[C@@H]2OCC=C3C[N+]4([O-])CC[C@]56c7ccccc7N1[C@H]5[C@H]2[C@H]3C[C@@H]64 (stereo partly specified)

>  <Quantity Kind>
TGI

>  <Assay Result>
> 100 µM

$$$$
>  <Molecule>
CN(C)c1ccc(/C=C2\CCc3ccccc3C2=O)cc1Br

>  <Quantity Kind>
TGI

>  <Assay Result>
> 100 µM

$$$$
>  <Molecule>
C(=NC12CC3CC(CC(C3)C1)C2)C1CCCCC1

>  <Quantity Kind>
TGI

>  <Assay Result>
> 100 µM

$$$$

Ask: Tell me TGI of `Cc1cc(C=O)c2c(=O)c3c(O)ccc(/C=C/C(C)C)c3oc2c1` when tested on SR leukemia.
Result: 78.2 µM

Ask: Report value: TGI, system: SR leukemia, molecule: `NCCCCNOCCCN`
Result: > 100 µM

Ask: Output reported TGI of the molecule `CCN(C(=O)N[C@@H](CC(C)C)C(=O)NCC(=O)OC)c1ccccc1` on SR leukemia.
Result: > 100 µM

Ask: Give measured TGI for `O=C1Nc2ccc(Cl)cc2/C1=N/c1nc(-c2ccc(Cl)cc2)cs1` (SR leukemia).
Result: > 100 µM

Ask: Give TGI only, for N#CC1=C(S)N(C2OC(CO)C(O)C(O)C2O)C(c2ccccc2)=CC1c1ccco1 (stereo unspecified) , using SR leukemia data.
Result: > 100 µM

Ask: Fill: TGI (SR leukemia) for this molecule `N#C[Se]CCN1C(=O)c2ccccc2C1=O`
Result: 23.9 µM

* * *

System: K-562 leukemia
Test: NCI tumour cell line growth inhibition, 48 h
Quantity Kind: TGI

Worked examples follow.
>  <Compound>
COc1cc2c(cc1OCCN1CCN(CCN3C(=O)c4cccc5cccc(c45)C3=O)CC1)N=C[C@@H]1CCCN1C2=O

>  <TGI>
57.7 µM

$$$$
>  <Compound>
O=C1C(Cl)=CC2(C=C1Cl)CCN=c1c(O)c3c(c(O)c12)=NC=N3

>  <TGI>
> 100 µM

$$$$
>  <Compound>
Clc1ccc(C(OCn2ccnc2)c2nc3ccccc3[nH]2)c(Cl)c1 (stereo not given)

>  <TGI>
> 100 µM

$$$$

Ask: Please list TGI recorded for the compound N#CCC(=O)N/N=C\C(O)C(O)C(O)C(O)CO (stereo not given)
Result: > 100 µM

Ask: # return recorded TGI for input `O=C1NC(=NCc2cccs2)O/C1=C\c1ccc2ncccc2c1`
Result: > 25 µM

Ask: Please indicate TGI recorded for CS(=O)(=O)CCC1CCC(=O)O1 (stereo not given)
Result: > 100 µM

Ask: Please report the measured TGI for CC1(c2ccc(Cl)cc2)C=C(c2ccc(Cl)cc2)C(C#N)=C(C(C#N)C#N)N1 (stereo not given)
Result: > 100 µM

* * *

System: MCF7 breast
Assay: NCI tumour cell line growth inhibition, 48 h
TGI overview
Report the figure in µM without appending any unit label.

Use the examples below as a reference point.
>  <Compound>
O=C1C(Cl)=CC2(C=C1Cl)CCN=c1c(O)c3c(c(O)c12)=NC=N3

>  <Reading Unit>
µM

>  <TGI>
48.9

$$$$
>  <Compound>
O=S(=O)(Nc1ccccc1)c1ccc(C2CC3(Cl)C(Cl)=C(Cl)C2(Cl)C3(Cl)Cl)cc1 (stereo not given)

>  <Reading Unit>
µM

>  <TGI>
7.67

$$$$
>  <Compound>
CCCCCCCCCCCCOC1C(C(COC2OC(C(O)CO)C3OC(C)(C)OC23)OC(=O)Nc2ccccc2)OC2OC(C)(C)OC21 (stereo not given)

>  <Reading Unit>
µM

>  <TGI>
13.6

$$$$

We now examine a further compound.
Ask: Recall and state the measured TGI for `O=C1/C(=C/c2ccc(Br)s2)NC(=S)N1CN1CCCCC1` .
Result: 57.8

* * *

System: 786-0 renal
Assay: NCI tumour cell line growth inhibition, 48 h; in the data active = GI50 below about 0.43 µM; inactive = the rest
Write down the outcome that applies. Available outcomes: active, inactive

>  <Smiles Entry>
COc1cc2c(Oc3ccc(-c4cnc(Nc5ccc(F)cc5)n(C)c4=O)cc3F)ccnc2cc1OCCCN1CCOCC1

>  <Assayed System>
786-0 renal

>  <Assigned Class>
inactive

$$$$
>  <Smiles Entry>
O=C(O)c1cn(C2CC2)c2cc(N3CCN(C(=O)N(c4ccccc4)c4nc(-c5ccccc5)cs4)CC3)c(F)cc2c1=O

>  <Assayed System>
786-0 renal

>  <Assigned Class>
active

$$$$

Now examine the next entry.
Ask: What call does the record list for `CN(C)[C@@H]1C(=O)C(C(=O)NCc2nc3[nH]cnc(=S)c3[nH]2)=C(O)[C@@]2(O)C(=O)C3=C(O)c4c(O)cccc4[C@@](C)(O)[C@H]3C[C@@H]12` ?
Result: inactive

* * *

Test system: DU-145 prostate
Assay: NCI tumour cell line growth inhibition, 48 h
Each entry gets False if its TGI stays under 10 µM, and True if its TGI is 10 µM or above.

>  <Compound>
COc1ccc(/C=C2\C[C@H]3[C@@H]4CC=C5C[C@@H](O)CC[C@]5(C)[C@H]4CC[C@]3(C)\C2=N\O)cc1

>  <Assigned Class>
True

$$$$
>  <Compound>
CCCCCCCCCCN=C(N)c1ccc(N2CCN(c3ccc(C(N)=NCCCCCCCCCC)cc3)CC2)cc1

>  <Assigned Class>
True

$$$$

Ask: Has `O=C(Nc1ccc(Cl)cc1Cl)C1C(=O)OC2(CCCCC2)OC1=O` a recorded TGI greater than or equal to 10 µM?
Result: True

Ask: Hi team, for `CN1CCN(C(=O)/C=C/c2ccc([N+](=O)[O-])o2)CC1` , is the recorded TGI at or above 10 µM?
Result: True

Ask: Textbook exercise: given the entry `COc1cc2c(Oc3ccc(-c4cnc(Nc5ccc(F)cc5)n(C)c4=O)cc3F)ccnc2cc1OCCCN1CCOCC1` , state whether its TGI is greater than or equal to 10 µM.
Result: False

Ask: Check if TGI >= 10 µM (inclusive). Item: `COc1cc2c(cc1OCCCOc1cc3c(cc1OC)C(=O)N1CCC[C@H]1C(=O)N3)N=C[C@@H]1CCCN1C2=O`
Result: True

Ask: Does TGI meet or surpass 10 µM for `Nc1ccc2c(=S)c3ccccc3[nH]c2c1` ?
Result: True

Ask: Check this compound for TGI at or above 10 µM: `CCOC(=O)c1cn(-c2ccc([N+](=O)[O-])cc2)c(=S)n2c1nc1ccccc12`
Result: True

* * *

Each entry below carries its recorded TGI.
Tested on: MOLT-4 leukemia
Assay: NCI tumour cell line growth inhibition, 48 h

>  <Compound>
CCN(C(=O)N[C@@H](CC(C)C)C(=O)NCC(=O)OC)c1ccccc1

>  <TGI>
> 100 µM

$$$$

Ask: Return TGI (reported value) for this compound: `OCc1ccc(N2CCc3ccc(F)cc3C2)cc1Cl`
Result: 30.5 µM

Ask: Hello, please tell me recorded TGI for this one: `CC1(C)CC(=O)C(C(=O)Nc2cccs2)=C(O)C1`
Result: 88.1 µM

Ask: Supply recorded TGI for `CC(C)(CCCCC(C)(C)NC1=NCCO1)NC1=NCCO1` here.
Result: > 10 µM

Ask: Fill in reported TGI for this entry: `N#C[Se]CCN1C(=O)c2ccccc2C1=O`
Result: 23.9 µM

Ask: Supply recorded TGI for `COC(=O)N/N=c1\cc(C(=O)Nc2ccc(C)c(C)c2)oc2cc(O)ccc12` here.
Result: > 100 µM
